- Test system: Mycobacterium tuberculosis Erdman (autoluminescent)
- procedure_text: Einf, fitted maximum growth inhibition of three-drug combination (fraction); higher = stronger maximal inhibition
- assay_conditions: in vitro model: intracellular J774; time point: constant = terminal
So I've got a bunch of compounds here, and I need their Einf values.
Numbers only.

Could I get Einf for every one of these entries?
1. NNC(=O)c1ccncc1 [isoniazid] + CO[C@H]1/C=C/O[C@@]2(C)Oc3c(C)c(O)c4c(O)c(c(/C=N/N5CCN(C6CCCC6)CC5)c(O)c4c3C2=O)NC(=O)/C(C)=C\C=C\[C@H](C)[C@H](O)[C@@H](C)[C@@H](O)[C@@H](C)[C@H](OC(C)=O)[C@@H]1C [rifapentine] + CO[C@H]1/C=C/O[C@@]2(C)Oc3c(C)c(O)c4c(O)c(c(/C=N/N5CCN(C)CC5)c(O)c4c3C2=O)NC(=O)/C(C)=C\C=C\[C@H](C)[C@H](O)[C@@H](C)[C@@H](O)[C@@H](C)[C@H](OC(C)=O)[C@@H]1C [rifampicin]
2. CC(C)/N=c1\cc2n(-c3ccc(Cl)cc3)c3ccccc3nc-2cc1Nc1ccc(Cl)cc1 [clofazimine] + CC(=O)NC[C@H]1CN(c2ccc(N3CCOCC3)c(F)c2)C(=O)O1 [linezolid] + NC(=O)c1cnccn1 [pyrazinamide]
3. NNC(=O)c1ccncc1 [isoniazid] + O=[N+]([O-])c1cn2c(n1)OC[C@@H](OCc1ccc(OC(F)(F)F)cc1)C2 [pretomanid] + NC(=O)c1cnccn1 [pyrazinamide]
4. NNC(=O)c1ccncc1 [isoniazid] + COc1c(N2C[C@@H]3CCCN[C@@H]3C2)c(F)cc2c(=O)c(C(=O)O)cn(C3CC3)c12 [moxifloxacin] + CO[C@H]1/C=C/O[C@@]2(C)Oc3c(C)c(O)c4c(O)c(c(/C=N/N5CCN(C6CCCC6)CC5)c(O)c4c3C2=O)NC(=O)/C(C)=C\C=C\[C@H](C)[C@H](O)[C@@H](C)[C@@H](O)[C@@H](C)[C@H](OC(C)=O)[C@@H]1C [rifapentine]
5. COc1nc2ccc(Br)cc2cc1[C@@H](c1ccccc1)[C@@](O)(CCN(C)C)c1cccc2ccccc12 [bedaquiline] + CC(=O)NC[C@H]1CN(c2ccc(N3CCOCC3)c(F)c2)C(=O)O1 [linezolid] + CO[C@H]1/C=C/O[C@@]2(C)Oc3c(C)c(O)c4c(O)c(c(/C=N/N5CCN(C)CC5)c(O)c4c3C2=O)NC(=O)/C(C)=C\C=C\[C@H](C)[C@H](O)[C@@H](C)[C@@H](O)[C@@H](C)[C@H](OC(C)=O)[C@@H]1C [rifampicin]
6. COc1nc2ccc(Br)cc2cc1[C@@H](c1ccccc1)[C@@](O)(CCN(C)C)c1cccc2ccccc12 [bedaquiline] + NC(=O)c1cnccn1 [pyrazinamide] + CO[C@H]1/C=C/O[C@@]2(C)Oc3c(C)c(O)c4c(O)c(c(/C=N/N5CCN(C)CC5)c(O)c4c3C2=O)NC(=O)/C(C)=C\C=C\[C@H](C)[C@H](O)[C@@H](C)[C@@H](O)[C@@H](C)[C@H](OC(C)=O)[C@@H]1C [rifampicin]

1: 0.936; 2: 0.935; 3: 1; 4: 0.952; 5: 0.93; 6: 0.999

Could I get Einf for every one of these entries?
1. NNC(=O)c1ccncc1 [isoniazid] + NC(=O)c1cnccn1 [pyrazinamide] + CO[C@H]1/C=C/O[C@@]2(C)Oc3c(C)c(O)c4c(O)c(c(/C=N/N5CCN(C6CCCC6)CC5)c(O)c4c3C2=O)NC(=O)/C(C)=C\C=C\[C@H](C)[C@H](O)[C@@H](C)[C@@H](O)[C@@H](C)[C@H](OC(C)=O)[C@@H]1C [rifapentine]
2. COc1nc2ccc(Br)cc2cc1[C@@H](c1ccccc1)[C@@](O)(CCN(C)C)c1cccc2ccccc12 [bedaquiline] + CC(C)/N=c1\cc2n(-c3ccc(Cl)cc3)c3ccccc3nc-2cc1Nc1ccc(Cl)cc1 [clofazimine] + COc1c(N2C[C@@H]3CCCN[C@@H]3C2)c(F)cc2c(=O)c(C(=O)O)cn(C3CC3)c12 [moxifloxacin]
3. COc1nc2ccc(Br)cc2cc1[C@@H](c1ccccc1)[C@@](O)(CCN(C)C)c1cccc2ccccc12 [bedaquiline] + O=[N+]([O-])c1cn2c(n1)OC[C@@H](OCc1ccc(OC(F)(F)F)cc1)C2 [pretomanid] + CO[C@H]1/C=C/O[C@@]2(C)Oc3c(C)c(O)c4c(O)c(c(/C=N/N5CCN(C6CCCC6)CC5)c(O)c4c3C2=O)NC(=O)/C(C)=C\C=C\[C@H](C)[C@H](O)[C@@H](C)[C@@H](O)[C@@H](C)[C@H](OC(C)=O)[C@@H]1C [rifapentine]
4. COc1nc2ccc(Br)cc2cc1[C@@H](c1ccccc1)[C@@](O)(CCN(C)C)c1cccc2ccccc12 [bedaquiline] + CC[C@@H](CO)NCCN[C@@H](CC)CO [ethambutol] + CC(=O)NC[C@H]1CN(c2ccc(N3CCOCC3)c(F)c2)C(=O)O1 [linezolid]
5. CC[C@@H](CO)NCCN[C@@H](CC)CO [ethambutol] + CC(=O)NC[C@H]1CN(c2ccc(N3CCOCC3)c(F)c2)C(=O)O1 [linezolid] + CO[C@H]1/C=C/O[C@@]2(C)Oc3c(C)c(O)c4c(O)c(c(/C=N/N5CCN(C)CC5)c(O)c4c3C2=O)NC(=O)/C(C)=C\C=C\[C@H](C)[C@H](O)[C@@H](C)[C@@H](O)[C@@H](C)[C@H](OC(C)=O)[C@@H]1C [rifampicin]
6. CC[C@@H](CO)NCCN[C@@H](CC)CO [ethambutol] + COc1c(N2C[C@@H]3CCCN[C@@H]3C2)c(F)cc2c(=O)c(C(=O)O)cn(C3CC3)c12 [moxifloxacin] + O=[N+]([O-])c1cn2c(n1)OC[C@@H](OCc1ccc(OC(F)(F)F)cc1)C2 [pretomanid]

0.987
0.974
0.985
0.922
0.96
0.999
